- System: 3T3L1 adipocyte cells
- test: Glucose transport (3H-deoxyglucose uptake) in 3T3L1 adipocyte cells
- Format: cell-based, mouse
- experimental.setup: compound alone; read-out: apparent EC50, stimulation of glucose transport
readout.kind: EC50

// lookup EC50 for CCc1cc(-c2ccc(F)cc2)c(O)cc1OCCCOc1ccc2c(=O)c3cc(C(=O)O)ccc3oc2c1CCC(=O)O [IM 140]
20 to 30 µM

* * *

Please respond with reported pKi for every item in the list.
- assay.target: insulin receptor β-subunit associated tyrosine kinase activity (Homo sapiens, UniProt P06213)
- Sequence (P06213 28-758 limits assumed): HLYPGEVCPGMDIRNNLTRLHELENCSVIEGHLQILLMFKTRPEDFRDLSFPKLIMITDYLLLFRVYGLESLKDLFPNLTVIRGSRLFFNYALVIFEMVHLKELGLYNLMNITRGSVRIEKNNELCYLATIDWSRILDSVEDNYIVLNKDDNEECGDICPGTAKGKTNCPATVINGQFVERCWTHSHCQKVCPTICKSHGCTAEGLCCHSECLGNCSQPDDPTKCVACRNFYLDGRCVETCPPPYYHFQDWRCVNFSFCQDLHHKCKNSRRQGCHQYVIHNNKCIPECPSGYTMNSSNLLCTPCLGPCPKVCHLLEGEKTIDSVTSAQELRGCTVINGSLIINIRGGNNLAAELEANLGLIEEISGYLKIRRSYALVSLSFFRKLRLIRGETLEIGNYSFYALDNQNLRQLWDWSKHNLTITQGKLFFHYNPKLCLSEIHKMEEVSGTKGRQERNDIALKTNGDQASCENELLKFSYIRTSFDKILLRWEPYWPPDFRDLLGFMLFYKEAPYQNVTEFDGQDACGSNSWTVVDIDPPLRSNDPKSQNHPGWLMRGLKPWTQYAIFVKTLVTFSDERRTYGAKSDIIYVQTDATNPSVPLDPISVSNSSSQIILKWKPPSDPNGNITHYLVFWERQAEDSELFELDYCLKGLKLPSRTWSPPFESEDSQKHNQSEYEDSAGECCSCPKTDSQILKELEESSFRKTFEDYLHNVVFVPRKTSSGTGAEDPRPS
- test: Protein tyrosine kinase (PTK) assay, 32P incorporation into FYF peptide
- Format: biochemical
- experimental.setup: read-out: estimated inhibition constant, PTK assay
The quantity pKi is defined as the negative base-10 logarithm of the molar concentration.

// lookup pKi for CCCc1c(OCCCOc2cc(O)c(-c3cc[nH]n3)cc2CC)ccc2c1OC(C(=O)O)CC2 (stereo not drawn)
3.44

Follow-up item: CCCc1c(OCc2ccc3ccccc3c2)ccc2c1OC(C(=O)O)CC2 (stereo not drawn)
3.89
